Biological target: DDR2 (Homo sapiens, UniProt Q16832)
Sequence (Q16832 22-855, species assumed): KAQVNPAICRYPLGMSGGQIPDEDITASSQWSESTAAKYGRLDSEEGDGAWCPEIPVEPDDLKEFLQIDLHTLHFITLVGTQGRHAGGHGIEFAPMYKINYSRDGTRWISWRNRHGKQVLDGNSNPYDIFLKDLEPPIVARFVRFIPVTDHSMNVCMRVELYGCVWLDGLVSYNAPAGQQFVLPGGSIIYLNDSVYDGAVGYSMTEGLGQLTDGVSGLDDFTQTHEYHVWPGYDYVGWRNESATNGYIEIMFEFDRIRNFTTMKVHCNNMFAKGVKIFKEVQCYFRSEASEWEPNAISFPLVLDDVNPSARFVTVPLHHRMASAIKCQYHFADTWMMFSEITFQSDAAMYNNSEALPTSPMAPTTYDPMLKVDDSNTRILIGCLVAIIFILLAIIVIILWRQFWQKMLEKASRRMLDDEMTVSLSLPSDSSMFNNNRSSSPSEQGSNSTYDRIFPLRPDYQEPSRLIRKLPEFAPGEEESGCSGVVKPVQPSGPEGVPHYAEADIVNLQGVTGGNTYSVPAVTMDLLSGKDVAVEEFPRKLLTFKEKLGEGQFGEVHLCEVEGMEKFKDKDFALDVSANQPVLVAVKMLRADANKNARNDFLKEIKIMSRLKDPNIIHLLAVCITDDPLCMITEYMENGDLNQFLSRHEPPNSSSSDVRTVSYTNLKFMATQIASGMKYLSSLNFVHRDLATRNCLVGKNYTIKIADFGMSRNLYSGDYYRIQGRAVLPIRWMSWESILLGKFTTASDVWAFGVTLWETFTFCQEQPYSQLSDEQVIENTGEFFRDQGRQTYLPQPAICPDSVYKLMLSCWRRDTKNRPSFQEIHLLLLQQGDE
Experiment: Kinase profiling DDR2
Format: biochemical
Conditions: 100 micromolar inhibitor concentration; 100 is no change
PARAMETER MEASURED: residual kinase activity, DDR2
# answer = number (no unit)

Ask: Lab note: DDR2 (Homo sapiens, UniProt Q16832) assay, enter residual kinase activity, DDR2 for O=C(Nc1nc2ccc(O)cc2s1)c1ccccn1 here
Reply: 104

Ask: Lab note: DDR2 (Homo sapiens, UniProt Q16832) assay, enter residual kinase activity, DDR2 for O=C(Nc1nc2cc(O)ccc2s1)c1cccnc1 here
Reply: 109

Ask: Lab note: DDR2 (Homo sapiens, UniProt Q16832) assay, enter residual kinase activity, DDR2 for O=C(Nc1nc2cc(O)ccc2s1)c1ccccn1 here
Reply: 85

Ask: Lab note: DDR2 (Homo sapiens, UniProt Q16832) assay, enter residual kinase activity, DDR2 for O=C(Nc1nc2ccc(O)cc2s1)c1ccccc1 here
Reply: 112

Ask: Lab note: DDR2 (Homo sapiens, UniProt Q16832) assay, enter residual kinase activity, DDR2 for CC(=O)Nc1nc2ccccc2s1 here
Reply: 97

Ask: Lab note: DDR2 (Homo sapiens, UniProt Q16832) assay, enter residual kinase activity, DDR2 for O=C(Nc1nc2ccc(O)cc2s1)c1ccncc1 here
Reply: 89

Ask: Lab note: DDR2 (Homo sapiens, UniProt Q16832) assay, enter residual kinase activity, DDR2 for O=C(Nc1nc2ccc(O)cc2s1)c1cccnc1 here
Reply: 93

Ask: Lab note: DDR2 (Homo sapiens, UniProt Q16832) assay, enter residual kinase activity, DDR2 for CC(=O)Nc1nc2cc(C)ccc2s1 here
Reply: 110

Ask: Lab note: DDR2 (Homo sapiens, UniProt Q16832) assay, enter residual kinase activity, DDR2 for O=C(Nc1nc2cc(O)ccc2s1)c1ccncc1 here
Reply: 115
